Target: Fructose-bisphosphate aldolase (Giardia intestinalis (strain ATCC 50803 / WB clone C6))
Assay: qHTS Assay for Inhibitors of Fructose-1,6-bisphosphate Aldolase from Giardia Lamblia; further: nearly all actives have a fitted effect of over 55% in size
Conditions: purified Giardia FBPA; series mostly up to 59.6 µM
Screen size: about 290,000 compounds; about 2,100 (0.72%) were called active. Not shown: some 4% with an inconclusive outcome. The call rests on the fitted dose curve; in most records, active means well fitted inhibition curve with a large enough effect; inconclusive means small, poorly fitted or top-dose-only effect, or effect the other way; inactive means flat fitted curve, though single readings scatter. What follows is part of a selection rich in actives, with near analogues and random picks from the rest.
Hello, when you answer, please use one of the following outcomes: Y = active, N = inactive

Problem: Look up the recorded call for "COC(=O)c1ccccc1NC(=S)NC(=O)c1ccccc1F" in this test.
Solution: N

Problem: Answer briefly: the call reported for "CCCCC(=O)N/N=C/c1c(O)n(-c2ccccc2)c(=O)[nH]c1=O" in this assay.
Solution: Y

Problem: How was "O=C(NC(=S)Nc1ncccn1)c1ccccc1Br" classified in this test?
Solution: Y

Problem: What did this assay record as the result for "O=C(NC(=S)Nc1ccc(S(=O)(=O)Nc2ncccn2)cc1)c1cccc(Br)c1" ?
Solution: N

Problem: Recorded test outcome, item "Cc1ccc(C(=O)NC2CCN(C(=O)Nc3ccc(F)cc3)CC2)cc1"
Solution: N

Problem: Recorded test outcome, item "Cc1ccc(NS(=O)(=O)c2ccc(-c3ccc(=O)[nH]n3)o2)c(C)c1"
Solution: N

* * *

Biological target: Fructose-bisphosphate aldolase (Giardia intestinalis (strain ATCC 50803 / WB clone C6))
Experiment: qHTS Assay for Inhibitors of Fructose-1,6-bisphosphate Aldolase from Giardia Lamblia; further: nearly all actives have a fitted effect of over 55% in size
Conditions: purified Giardia FBPA; series mostly up to 59.6 µM
The campaign covered roughly 290,000 compounds. About 2,100 (0.72%) were called active. Roughly 4% stayed inconclusive and do not appear here. The call rests on the fitted dose curve; in most records, active means well fitted inhibition curve with a large enough effect; inconclusive means small, poorly fitted or top-dose-only effect, or effect the other way; inactive means flat fitted curve, though single readings scatter. This is one part of a sample in which actives are shown more often than they occur.
Write down one outcome, taken from active, inactive

Problem: Which outcome was assigned to "Cc1cnc(NC(=O)c2ccccn2)s1" in this test?
Solution: active

Problem: Which result was noted for this compound in the test: Cc1noc(C)c1CCC(=O)N1CCCC(CO)(Cc2ccccc2)C1 (stereo unspecified)
Solution: inactive

Problem: Identify the outcome logged in this assay for the compound shown: "CN=C1S/C(=C\c2ccc(Sc3ccc(Cl)cc3)o2)C(=O)N1C"
Solution: inactive

Problem: What was the test verdict on "Cc1cnc(NC(=O)CSc2c(Cl)cccc2Cl)s1" ?
Solution: inactive

Problem: Could you check what this test reported for COc1ccc(C2c3[nH]c4ccccc4c3C[C@H]3C(=O)N(CC(C)C)CC(=O)N23)c(OC)c1 (stereo partly specified) ?
Solution: inactive

Problem: Would you mind telling me which call this test gave "O=c1nc(N/N=C/c2ccco2)cn[nH]1" ?
Solution: active

Problem: Call for entry "COc1ccc(S(=O)(=O)NCCc2c[nH]c3ccccc23)cc1OC" :
Solution: inactive

Problem: What call does the record list for "O=C(Nc1ccccc1Cl)O/N=C(/c1ccccc1)c1ccccn1" ?
Solution: active

Problem: In this assay, the call recorded for "O=C(CN1CCN(Cc2ccccc2)CC1)Nc1ccc(F)c(F)c1" was what?
Solution: active

Problem: Outcome logged for "O=C(Nc1cccnc1Cl)c1cc(-c2ccccc2O)on1" in this assay:
Solution: inactive

Problem: GET /call?item= "O=C(N/N=C/c1ccco1)c1ccc(C(=O)N/N=C/c2ccco2)o1" returns the recorded outcome of this test.
Solution: inactive

* * *

Biological target: Fructose-bisphosphate aldolase (Giardia intestinalis (strain ATCC 50803 / WB clone C6)) (UniProt A8B2U2)
Sequence (A8B2U2 whole entry, looked up): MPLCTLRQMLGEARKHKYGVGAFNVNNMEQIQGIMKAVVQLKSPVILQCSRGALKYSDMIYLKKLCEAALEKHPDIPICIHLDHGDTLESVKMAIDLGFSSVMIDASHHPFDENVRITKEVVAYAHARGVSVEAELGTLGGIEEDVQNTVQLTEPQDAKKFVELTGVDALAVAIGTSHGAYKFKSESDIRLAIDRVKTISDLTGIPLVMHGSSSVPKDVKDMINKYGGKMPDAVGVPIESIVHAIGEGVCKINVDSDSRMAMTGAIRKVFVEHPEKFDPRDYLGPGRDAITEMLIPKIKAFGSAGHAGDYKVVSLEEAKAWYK
Assay: qHTS Assay for Inhibitors of Fructose-1,6-bisphosphate Aldolase from Giardia Lamblia; further: nearly all actives have a fitted effect of over 55% in size
Conditions: purified Giardia FBPA; series mostly up to 59.6 µM
Among all 290,000 compounds or so, about 2,100 (0.72%) were called active. Not shown: some 4% with an inconclusive outcome. Calls come from the whole dose curve; as a rule, active = well fitted inhibition curve with a large enough effect; inconclusive = small, poorly fitted or top-dose-only effect, or effect the other way; inactive = flat fitted curve, though single readings scatter. The entries come from a sample that favours actives as a whole.
Output constraint: value belongs to class 1 for active, class 0 for inactive

Problem: # outcome recorded in this test, key = CC1CCCCN1S(=O)(=O)c1ccc(C(=O)Nc2nnc(-c3cccs3)o2)cc1 (stereo not drawn)
Solution: class 0

Problem: Could you check what this test reported for "O=C(Nc1nnc(-c2ccco2)o1)c1ccc(S(=O)(=O)N2CCOCC2)cc1" ?
Solution: class 1

Problem: Outcome logged for CSCc1nnc(NC(=O)c2ccc(S(=O)(=O)N3CCCCC3C)cc2)o1 (stereo not drawn) in this assay:
Solution: class 0
